Origin of values: patent US20170342144A1

experimentalSystem: T1, human TGFβ2 (human, UniProt P61812 303-414)
T1 construct: also called TGFβ2 homodimer
T1 sequence: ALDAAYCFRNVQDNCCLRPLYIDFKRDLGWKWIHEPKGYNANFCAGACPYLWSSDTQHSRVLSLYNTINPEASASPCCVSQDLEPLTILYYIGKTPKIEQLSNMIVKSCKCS
protocolDescription: Biacore off-rate vs wt GC1008, 50 nM
Threshold 1: kd var/kd wt strictly smaller gives true, otherwise false.

binder: N32G (antibody, V domains shown, GC1008 IgG4 variant) VH: QVQLVQSGAEVKKPGSSVKVSCKASGYTFSSGVISWVRQAPGQGLEWMGGVIPIVDIANYAQRFKGRVTITADESTSTTYMELSSLRSEDTAVYYCASTLGLVLDAMDYWGQGTLVTVSS VL: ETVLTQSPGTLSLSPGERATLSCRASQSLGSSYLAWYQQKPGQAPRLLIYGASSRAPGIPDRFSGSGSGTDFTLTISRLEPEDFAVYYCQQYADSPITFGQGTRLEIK
category: false

binder: I54A (antibody, V domains shown, GC1008 IgG4 variant) VH: QVQLVQSGAEVKKPGSSVKVSCKASGYTFSSNVISWVRQAPGQGLEWMGGVIPAVDIANYAQRFKGRVTITADESTSTTYMELSSLRSEDTAVYYCASTLGLVLDAMDYWGQGTLVTVSS VL: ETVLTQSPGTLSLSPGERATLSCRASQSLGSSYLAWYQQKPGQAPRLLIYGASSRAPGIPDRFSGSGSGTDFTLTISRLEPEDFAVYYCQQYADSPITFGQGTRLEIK
category: false

binder: L104W (antibody, V domains shown, GC1008 IgG4 variant) VH: QVQLVQSGAEVKKPGSSVKVSCKASGYTFSSNVISWVRQAPGQGLEWMGGVIPIVDIANYAQRFKGRVTITADESTSTTYMELSSLRSEDTAVYYCASTLGLVWDAMDYWGQGTLVTVSS VL: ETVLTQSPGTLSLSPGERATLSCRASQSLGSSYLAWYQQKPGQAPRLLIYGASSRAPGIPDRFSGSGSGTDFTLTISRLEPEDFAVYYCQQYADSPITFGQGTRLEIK
category: false

Here's the next entry for you.
# input Hello, I'm reviewing records and need to know if kd var/kd wt of E74L (antibody, V domains shown, GC1008 IgG4 variant) VH: QVQLVQSGAEVKKPGSSVKVSCKASGYTFSSNVISWVRQAPGQGLEWMGGVIPIVDIANYAQRFKGRVTITADLSTSTTYMELSSLRSEDTAVYYCASTLGLVLDAMDYWGQGTLVTVSS VL: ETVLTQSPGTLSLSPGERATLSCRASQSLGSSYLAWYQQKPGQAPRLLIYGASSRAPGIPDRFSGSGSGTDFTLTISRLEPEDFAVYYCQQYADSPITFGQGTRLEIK is below 1. Could you check?
# output true
